experiment: yeast display, Sf9 membrane polyspecificity reagent, FACS + sequencing; frameworks hold sequencing errors

{"columns": ["sequence.string", "polyreactivity (PSR sort gate)"],
 "data": [
  ["QVQLVESGGGLVQAGVSLRLSCAASGFTFTTYVMGSYRQAPGKERELVAAISRRGTSTRYADSVKGRFTISRDNAKNTVYLQMNSLKPEDTAVYYCAADRPYSIVPYDYWGQGTQVTVSS", "high polyreactivity"],
  ["QVQLVESGGGLVQAGGSLRLSCAASGRIFSYYTMGGYRQAPGTERELVAAISSGGSTNYADSVKGRFTISRDNAKNTVYLQMNSLKPEDTAVYYCAVRSGRRNYDRPAFGYWGQGTQVTVSS", "high polyreactivity"]
]}

====

experiment: yeast display, Sf9 membrane polyspecificity reagent, FACS + sequencing; frameworks hold sequencing errors
measured.endpoint: polyreactivity (PSR sort gate)

These recorded examples may help you get a feel for the data.
{"columns": ["sequence.string", "polyreactivity (PSR sort gate)"],
 "data": [
  ["QVQLVESGGGLVQAGGSLRLSCAASGRIFKTNAMGWYRQAPGKERELVAAISRSGSRTSYADSVKGRFTISRDNAKNTVYLQMNSLKPEDTAVYYCATRGLYWKVGYWGQGTQVTVSS", "high polyreactivity"],
  ["QVQLVESGGGLVQAGGSLRLSCAASGRTFDFYAMGWYRQAPGKERELVAGITSGDSTHYADSVKGRFTISRDNAKNTVYLQMNSLKPEDTAVYYCAADITWYDYAGSHIVEHDYWGQGTQVTVSS", "low polyreactivity"],
  ["QVQLVESGGGLVQAGGSLRLSCAASGSISYRYDKGWYRQAPGKEMELVATIRSGGSTNYADSVKGRFTISRDTAKNTVYLQMNSLKPEDTAVYYGAARLYARKKLHFSADSDYWGQGTQVTVSS", "low polyreactivity"],
  ["QVQLVESGGGLVQAGVSLRLSCAASGSTFPVNTMGWYRQAPGKERELVAAISWSGGRTYYADSVKGRFTISRDNAKNNVYLQMNILKPEDTAVYYCAADIGSYYYYTYYYWGQGSQVTVSS", "high polyreactivity"],
  ["QVQLVESGGGLVQAGGSLRLSCAASGISFTYNTMGWSRQAPGKESELVAAITSGGGTNYADSVKGRFTISRDNAKNTVYLQMNSLKPEDTAVYYCAKDPGTVGPIWYDYWGQGTQVTVSS", "low polyreactivity"],
  ["QVQLVESGGRLVQAGGSRRLSCAASGFTLRRNAMGWYRQAPGKERELVAAISSSGSTYYADSVKGRFTISRDNAKNTVYLQMNSLKPEDTAVYYCAALSKKVRTGQYNVGGDYWGQGTQVTVSS", "high polyreactivity"],
  ["QVQLVDSGGGLLQAGGSLRLSCAASGNIFGRYAMGWYRQAPGKEREFVATITYSGGSTYYADSVKGRFTISRDNAKNTVYLQMNSLKPEDTAVYYCAARVGRPSLVAAKYDYWGQGTQVTVSS", "high polyreactivity"],
  ["QVQLVESGGGLVQAGGSLRLICAASGSTFKRYAMGWYRPAPGNERELVAAISSTGGSTFYADSVKGRFTISRDIAKYTVYLQMNSLKREDTAVYYCKKYRATNSARDYWGQGTQVTVSS", "high polyreactivity"]
]}

// QVQLVESGGGLVQAGGSLRLSCAASGRTFWVYAMGWYRQAPGKEREFVAAISGSVGSTYYADSVKGRFTISRDNAMKTVYLQMNSLKPEDTAVYYCAARQRRSEYGYWGQGTQVTVSS : polyreactivity (PSR sort gate) value = high polyreactivity

The sequence QVQLVESGGGLVQAGGSLRLSCAASGGTFTYYTKGWYRQAPGKERELVAAISTGGRTYYADSVKGRFTISRDNAKNTVYLQMNSLKPEDTAVYYCNADYDETDVLGEFDYWGQGTQVTVSS showed polyreactivity (PSR sort gate) equal to low polyreactivity

Query QVQLVESGGGLVQAGGSLRLSCAASGSTFAQNAMGWYRQAPGKEREYVAAITGTVGSTYYADSVKGRFTISRDNAKNTVYLQMNSLKPEDTAVYYCNTRGFNGRVYPYDYWGQGTQVTVSS yields polyreactivity (PSR sort gate) of low polyreactivity

====

assay: yeast display, Sf9 membrane polyspecificity reagent, FACS + sequencing; frameworks hold sequencing errors
measured.endpoint: polyreactivity (PSR sort gate)

{"columns": ["sequence.string", "measured.endpoint", "result.value"],
 "data": [
  ["QFQLVESGGGLDQAGGSLRLSCAASGRTFHAYAMGSYRQAHGKGRELVAAITRTGTTHYADSVKGRFTISRDNAKNTVFLQMNSLKPEDTAVYYCAAQHVRVAAQFVLQGYDYWGQGTQVTVSS", "polyreactivity (PSR sort gate)", "low polyreactivity"],
  ["QVQLVESGGGLVQAGGSLRLSCAASGFIFAGYVMGWSRQAPGKERELVAAISSGGRTYYADSVKGRFTISRDNAKNTVYLQMNSLKPEDTAVYYCAAARWQVRATEGNYWGQGTQVTVSS", "polyreactivity (PSR sort gate)", "high polyreactivity"],
  ["QVQLVESGGGLVQAGGSLRLSCAASGNTFLVNAKGWYRQAPGKERELVATIRRGGSTNYADSVKGRFTISRDNAKNTVYLLMNSLKPEDTAVYYCNADRVGYWSSNMDYWGQGTEVTVSS", "polyreactivity (PSR sort gate)", "low polyreactivity"],
  ["QVQLVESGGGLVQAGGSLRLSCAASGSIFKYYAMGWYRQAPGKERELVAAIDWSGGNTYADSVKGRFTISRDNAKNTVYLQMNSLKPEDTAVYYCAADAFAVYRITSYNGSDSWGQGTQVTVSS", "polyreactivity (PSR sort gate)", "high polyreactivity"]
]}

The sequence identified as QVQLVESGGGLVQAGGSLRLSCAASGSIFGSNAMGWYRQAPGKEREFVAVITWRVGDTYYADSVKGRFTISRDNAKNTVYLQMYSLKPEDTAVYYCNVDWKVYGAPDYRIAWKYDYWGQGTQVTVSS registered its polyreactivity (PSR sort gate) at low polyreactivity

// sample QVQLVESGGGLVQAGGSLRLSCAASGSIFGRYAMGWYRQAPGKERELVAAISYSGGSTYYADSVKGRFTISRDNAKNTVYLQMNSLKPEDTAFYYCAAETSYYTRWFDGHYYYWGQGTQVTVSS , its polyreactivity (PSR sort gate) was high polyreactivity

Note to self: polyreactivity (PSR sort gate) recorded for QVQHVESGGGLVQAGGSLRLSCAASGSTFWYYDMGWYRQAPGKEMELVAAISGSGGRTYYADSVKGRFTISRDNAKNTVYLQMNSLKPEDTAVYYCAADDYWSADFKYNYWGQGTQVTVSS was low polyreactivity

Record QVQLVESGGRLVKAGASHRLSCAASAITCGRNTRGWYRQAPGKARELVAAIDSGVNTYADSVKGRFTISRDNAKYTVYLQMTSLKPEDTSVYYWAFVGGEFSSYGYWGLGTQVTVSS . Reported polyreactivity (PSR sort gate): low polyreactivity

For this sequence ( QVQLVESGGGLVQAGGSLRLSCAASGRIYDYMAWYRQAPGKERELVAAISWRGGRTYYADSVKGRFTISRDNAKNTVYLQMNSLKPEDTAVYYCAAKTTYRYGYWGQGSQVTVSS ), measured polyreactivity (PSR sort gate) is high polyreactivity

Short answer for QVQLVESGGGLVQAGGSLRLSCAASGSIFTGYAMGWYRPAPGKERELVAANRYTTTSTYYADSVKGRFTISRDNAKNTVYLQMHSLKPEDTAVYYCKGWRGTYSGDYWGQGTQVTVSS : polyreactivity (PSR sort gate) was high polyreactivity

// QVQLVESGGGLVQAGGSLRLSCAASGRTFRYNAMGWYRQAPGKERELVAAISTRGGSTYYADSVKGRFTISRDNAKNTVYLQMNSLKPEDTAVYYCAVTPRIPGHFEDYYWGQGTQVTVSS : polyreactivity (PSR sort gate) value = low polyreactivity

====

test: yeast display, Sf9 membrane polyspecificity reagent, FACS + sequencing; frameworks hold sequencing errors
measured.endpoint: polyreactivity (PSR sort gate)

Observe how each entry below is paired with its result.
{"columns": ["sequence.string", "polyreactivity (PSR sort gate)"],
 "data": [
  ["QVQLVESGGGLVQAGGSLRLSCAASGRTFYHYAIGWSRQAPGKEREMVAAITRRGGSTYYADSVKGRFTISRDNAKNTVYLQMNRLKPEDTAVYYCAVDGVTSRRYVYEYWGQGTQVTVSS", "high polyreactivity"],
  ["QVQLVESGGGLVQAGGSLRLSCAASGRIFWWNTMGWYRQAPGKERELVASITGSGGRTSYADSVKGRFTISRDNAKNTVYLQMNSLKPEDTAVYYCAKEHVSKWSYPYYYWGQGTQVTVSS", "high polyreactivity"],
  ["QVQLVESGGGLVQAGGSLLLSCAASGYIFWSNTMGWYRQAPGKERELVAAISQSTASTYYADSVKGRFTISRDNAKNTVYLQMNSLKPEDTAVYYCAAYYNFGDYEYDYWGQGTQVTVSS", "low polyreactivity"],
  ["QVQLVESGGGLVQAGGSLRLSCAASGRIFGVNAMGWYRQAPGKVRELVAAIRYSGGSTYYADSVKGRFTISRDYAKNTVYLQMNSLKPEDTAVYYCAKARYTYSWSFGYWGQGTQVTVSS", "low polyreactivity"],
  ["QVQLVESGGGLVQAGCSLRLSCAASGRIYRRYAMGWYRQAPGKERELVAAISSRGGRTYYADSVKGRITISRDNAMNTVYLQMNSLKQEDTAVYYCAARPAGYGHYKYYYWGQGTQVTVSS", "high polyreactivity"]
]}

Now for another entry.
Looking up QVQLVESGGGLVQAGGSLRLSCAASGRTFSENAMGWYRQAPGKERELVAAISGSGGRTYYADSVKGRFTISRDNAKNTVYLQMNRLKPEDTAVYYCAKVTRYGSTYDYWGQGTQVTVSS , I found its polyreactivity (PSR sort gate) recorded as high polyreactivity

Taken from the nanobody polyreactivity screen of Harvey et al. (2022).
